TARGET: WIZ (Homo sapiens, UniProt O95785+Q96SW2)
Construct: expressed in transfected cells
Sequence (O95785 whole entry): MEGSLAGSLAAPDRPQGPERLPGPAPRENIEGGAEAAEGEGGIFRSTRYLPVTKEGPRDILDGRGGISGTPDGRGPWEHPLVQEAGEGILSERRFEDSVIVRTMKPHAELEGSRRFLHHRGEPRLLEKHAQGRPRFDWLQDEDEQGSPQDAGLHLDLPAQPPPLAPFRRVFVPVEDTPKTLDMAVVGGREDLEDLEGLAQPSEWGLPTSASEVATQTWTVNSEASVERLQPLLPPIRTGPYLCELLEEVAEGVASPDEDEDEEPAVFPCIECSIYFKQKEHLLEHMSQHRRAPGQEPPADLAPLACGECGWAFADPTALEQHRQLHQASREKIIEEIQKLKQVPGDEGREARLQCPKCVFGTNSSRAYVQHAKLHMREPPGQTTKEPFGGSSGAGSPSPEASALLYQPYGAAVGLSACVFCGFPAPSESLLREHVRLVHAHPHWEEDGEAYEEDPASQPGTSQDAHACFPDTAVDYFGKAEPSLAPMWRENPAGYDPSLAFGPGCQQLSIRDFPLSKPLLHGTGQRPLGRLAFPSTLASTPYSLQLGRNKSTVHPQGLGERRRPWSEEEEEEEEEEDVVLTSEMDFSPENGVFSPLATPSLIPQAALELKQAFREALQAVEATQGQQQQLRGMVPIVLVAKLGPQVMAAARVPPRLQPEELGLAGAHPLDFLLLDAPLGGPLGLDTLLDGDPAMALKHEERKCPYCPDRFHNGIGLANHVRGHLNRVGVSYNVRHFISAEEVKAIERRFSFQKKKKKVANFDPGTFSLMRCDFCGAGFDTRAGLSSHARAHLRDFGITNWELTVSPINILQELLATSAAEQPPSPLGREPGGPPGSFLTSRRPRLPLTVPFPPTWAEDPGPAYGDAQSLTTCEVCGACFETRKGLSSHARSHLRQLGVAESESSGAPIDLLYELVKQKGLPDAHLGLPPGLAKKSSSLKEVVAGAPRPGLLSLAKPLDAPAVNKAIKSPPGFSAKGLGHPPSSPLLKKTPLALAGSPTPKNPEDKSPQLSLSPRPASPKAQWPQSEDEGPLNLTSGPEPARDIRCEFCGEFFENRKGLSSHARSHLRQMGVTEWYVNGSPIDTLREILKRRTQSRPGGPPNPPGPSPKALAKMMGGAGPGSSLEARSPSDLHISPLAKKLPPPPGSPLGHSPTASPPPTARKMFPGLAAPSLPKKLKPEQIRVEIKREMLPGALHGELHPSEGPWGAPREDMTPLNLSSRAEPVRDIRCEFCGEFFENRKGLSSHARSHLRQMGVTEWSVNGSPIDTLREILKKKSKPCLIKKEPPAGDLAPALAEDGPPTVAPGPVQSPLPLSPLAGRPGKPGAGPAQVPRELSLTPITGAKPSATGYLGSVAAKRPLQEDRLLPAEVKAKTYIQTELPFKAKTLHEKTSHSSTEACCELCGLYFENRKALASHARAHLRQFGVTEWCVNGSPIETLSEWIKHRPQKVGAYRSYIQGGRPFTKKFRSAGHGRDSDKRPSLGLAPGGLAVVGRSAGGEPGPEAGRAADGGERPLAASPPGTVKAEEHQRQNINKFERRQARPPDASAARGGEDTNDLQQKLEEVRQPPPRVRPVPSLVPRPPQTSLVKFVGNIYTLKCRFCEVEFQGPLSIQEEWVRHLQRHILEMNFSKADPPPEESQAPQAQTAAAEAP
Sequence (Q96SW2 whole entry): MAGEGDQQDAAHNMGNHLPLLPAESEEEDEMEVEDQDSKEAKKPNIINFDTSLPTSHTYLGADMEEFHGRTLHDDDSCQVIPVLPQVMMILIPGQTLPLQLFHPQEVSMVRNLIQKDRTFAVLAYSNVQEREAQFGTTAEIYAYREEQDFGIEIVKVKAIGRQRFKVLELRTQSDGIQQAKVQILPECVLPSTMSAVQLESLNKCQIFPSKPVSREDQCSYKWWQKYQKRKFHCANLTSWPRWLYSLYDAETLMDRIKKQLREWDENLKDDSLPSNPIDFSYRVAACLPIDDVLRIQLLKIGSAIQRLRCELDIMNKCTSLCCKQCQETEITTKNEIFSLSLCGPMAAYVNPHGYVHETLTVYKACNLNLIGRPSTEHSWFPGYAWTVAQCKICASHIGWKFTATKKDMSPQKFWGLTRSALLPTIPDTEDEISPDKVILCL
Sequence (Q16531 whole entry partner): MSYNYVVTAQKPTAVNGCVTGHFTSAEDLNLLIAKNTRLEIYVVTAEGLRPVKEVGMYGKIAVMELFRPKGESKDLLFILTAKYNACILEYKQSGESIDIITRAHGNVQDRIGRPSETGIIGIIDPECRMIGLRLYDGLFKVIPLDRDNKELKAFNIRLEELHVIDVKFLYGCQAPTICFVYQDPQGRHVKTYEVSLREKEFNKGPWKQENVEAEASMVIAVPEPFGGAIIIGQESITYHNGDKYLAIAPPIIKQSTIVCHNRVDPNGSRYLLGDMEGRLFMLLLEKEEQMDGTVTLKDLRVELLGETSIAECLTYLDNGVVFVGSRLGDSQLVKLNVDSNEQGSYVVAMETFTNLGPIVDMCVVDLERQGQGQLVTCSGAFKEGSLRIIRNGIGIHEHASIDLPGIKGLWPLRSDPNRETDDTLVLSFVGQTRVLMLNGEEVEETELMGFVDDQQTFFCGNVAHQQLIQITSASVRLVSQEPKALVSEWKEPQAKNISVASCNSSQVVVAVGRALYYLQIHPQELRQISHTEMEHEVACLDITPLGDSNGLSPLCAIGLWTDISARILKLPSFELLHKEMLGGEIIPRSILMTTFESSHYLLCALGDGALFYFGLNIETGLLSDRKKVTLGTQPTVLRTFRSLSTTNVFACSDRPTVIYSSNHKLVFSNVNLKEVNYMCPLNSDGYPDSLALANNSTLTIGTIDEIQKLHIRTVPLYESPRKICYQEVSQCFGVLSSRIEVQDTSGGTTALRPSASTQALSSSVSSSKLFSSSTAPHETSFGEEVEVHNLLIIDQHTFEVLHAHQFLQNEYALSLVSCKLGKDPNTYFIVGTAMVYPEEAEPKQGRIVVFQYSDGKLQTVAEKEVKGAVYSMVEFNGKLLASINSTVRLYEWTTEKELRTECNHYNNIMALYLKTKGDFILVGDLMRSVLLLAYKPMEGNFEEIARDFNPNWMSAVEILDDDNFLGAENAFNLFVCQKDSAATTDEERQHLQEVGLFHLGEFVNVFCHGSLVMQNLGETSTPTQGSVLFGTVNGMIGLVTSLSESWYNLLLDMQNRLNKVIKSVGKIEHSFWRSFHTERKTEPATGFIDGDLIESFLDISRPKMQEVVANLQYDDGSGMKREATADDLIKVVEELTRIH
PROCEDURE DETAILS: Quantification of WIZ protein levels in HiBit tag fusion protein assay (293T cells)
Format: cell-based
TEST SETTINGS: HEK-293T, read-out: WIZ Amax
In this section we review reported remaining activity at 25 µM values for a set of compounds.

[
  {
    "COMPOUND": "CCn1cc(CN2CCC[C@@H](Oc3ccc4c(c3)CN(C3CCC(=O)NC3=O)C4=O)C2)cn1 (stereo partly shown)",
    "VALUE UNITS": "%",
    "remaining activity at 25 µM": 40.7
  },
  {
    "COMPOUND": "CCN1C[C@H](C)C[C@@H](Oc2ccc3c(c2)CN(C2CCC(=O)NC2=O)C3=O)C1 (mixture of isomers) [Example 75-1]",
    "VALUE UNITS": "%",
    "remaining activity at 25 µM": 13.4
  },
  {
    "COMPOUND": "C[C@@H]1C[C@@H](Oc2ccc3c(c2)CN(C2CCC(=O)NC2=O)C3=O)CN(C)C1 (stereo partly shown)",
    "VALUE UNITS": "%",
    "remaining activity at 25 µM": 16.5
  },
  {
    "COMPOUND": "CCN1CC[C@@H](F)[C@@H](Oc2ccc3c(c2)CN(C2CCC(=O)NC2=O)C3=O)C1 (relative stereo)",
    "VALUE UNITS": "%",
    "remaining activity at 25 µM": 83.1
  }
]

====

TARGET: WIZ (Homo sapiens, UniProt O95785+Q96SW2)
Construct: expressed in transfected cells
PROCEDURE DETAILS: Quantification of WIZ protein levels in HiBit tag fusion protein assay (293T cells)
Format: cell-based
TEST SETTINGS: HEK-293T, read-out: WIZ Amax

[
  {
    "MOLECULE": "C[C@H]1CC[C@@H](Oc2ccc3c(c2)CN(C2CCC(=O)NC2=O)C3=O)CN1C1CCC1 (stereo partly shown) [Example 82]",
    "remaining activity at 25 µM / %": 15
  },
  {
    "MOLECULE": "CCN1CCC[C@@H](Oc2ccc3c(c2)CN(C2CCC(=O)NC2=O)C3=O)[C@H]1C (mixture of isomers) [Example 44]",
    "remaining activity at 25 µM / %": 84.2
  },
  {
    "MOLECULE": "CC1(C)CCC(Oc2ccc3c(c2)CN(C2CCC(=O)NC2=O)C3=O)CN1 (stereo not shown) [Example 88-1]",
    "remaining activity at 25 µM / %": 50
  },
  {
    "MOLECULE": "CCN1C[C@H](OC)C[C@@H](Oc2ccc3c(c2)CN(C2CCC(=O)NC2=O)C3=O)C1 (stereo partly shown) [Example 64]",
    "remaining activity at 25 µM / %": 20.6
  },
  {
    "MOLECULE": "CCN1C[C@H](C)C[C@@H](Oc2ccc3c(c2)CN(C2CCC(=O)NC2=O)C3=O)C1 (mixture of isomers) [Example 52]",
    "remaining activity at 25 µM / %": 23.8
  },
  {
    "MOLECULE": "CCN1C[C@H](Oc2ccc3c(c2)CN(C2CCC(=O)NC2=O)C3=O)CC[C@H]1C (stereo partly shown) [Example 23]",
    "remaining activity at 25 µM / %": 42.3
  },
  {
    "MOLECULE": "CCN1CC[C@@H](F)[C@H](Oc2ccc3c(c2)CN(C2CCC(=O)NC2=O)C3=O)C1 (relative stereo) [Example 56]",
    "remaining activity at 25 µM / %": 83.8
  },
  {
    "MOLECULE": "CCN1CC[C@@H](Oc2ccc3c(c2)CN(C2CCC(=O)NC2=O)C3=O)C1 (stereo partly shown) [Example 39]",
    "remaining activity at 25 µM / %": 47.9
  },
  {
    "MOLECULE": "CCO[C@@H]1C[C@@H](Oc2ccc3c(c2)CN(C2CCC(=O)NC2=O)C3=O)CN(CC)C1 (stereo partly shown) [Example 63]",
    "remaining activity at 25 µM / %": 20.5
  },
  {
    "MOLECULE": "CCN1C[C@H](Oc2ccc3c(c2)CN(C2CCC(=O)NC2=O)C3=O)CC[C@@H]1C (stereo partly shown) [Example 41]",
    "remaining activity at 25 µM / %": 11.4
  },
  {
    "MOLECULE": "CCN1CCC[C@@H](Oc2ccc3c(c2)CN(C2CCC(=O)NC2=O)C3=O)C1 (mixture of isomers) [Example 1]",
    "remaining activity at 25 µM / %": 24
  },
  {
    "MOLECULE": "CCC[C@H]1CC[C@@H](Oc2ccc3c(c2)CN(C2CCC(=O)NC2=O)C3=O)CN1 (stereo partly shown) [Example 87-1]",
    "remaining activity at 25 µM / %": 28.6
  },
  {
    "MOLECULE": "CCN1CCCC[C@H](Oc2ccc3c(c2)CN(C2CCC(=O)NC2=O)C3=O)C1 (stereo partly shown) [Example 37]",
    "remaining activity at 25 µM / %": 103
  }
]
